# MEASURED ON: T1, FcRL3, overexpressed on 3T3 cells (UniProt Q96P31 18-734, limits assumed)
# T1 construct: whole, on cells
# T1 sequence (looked up): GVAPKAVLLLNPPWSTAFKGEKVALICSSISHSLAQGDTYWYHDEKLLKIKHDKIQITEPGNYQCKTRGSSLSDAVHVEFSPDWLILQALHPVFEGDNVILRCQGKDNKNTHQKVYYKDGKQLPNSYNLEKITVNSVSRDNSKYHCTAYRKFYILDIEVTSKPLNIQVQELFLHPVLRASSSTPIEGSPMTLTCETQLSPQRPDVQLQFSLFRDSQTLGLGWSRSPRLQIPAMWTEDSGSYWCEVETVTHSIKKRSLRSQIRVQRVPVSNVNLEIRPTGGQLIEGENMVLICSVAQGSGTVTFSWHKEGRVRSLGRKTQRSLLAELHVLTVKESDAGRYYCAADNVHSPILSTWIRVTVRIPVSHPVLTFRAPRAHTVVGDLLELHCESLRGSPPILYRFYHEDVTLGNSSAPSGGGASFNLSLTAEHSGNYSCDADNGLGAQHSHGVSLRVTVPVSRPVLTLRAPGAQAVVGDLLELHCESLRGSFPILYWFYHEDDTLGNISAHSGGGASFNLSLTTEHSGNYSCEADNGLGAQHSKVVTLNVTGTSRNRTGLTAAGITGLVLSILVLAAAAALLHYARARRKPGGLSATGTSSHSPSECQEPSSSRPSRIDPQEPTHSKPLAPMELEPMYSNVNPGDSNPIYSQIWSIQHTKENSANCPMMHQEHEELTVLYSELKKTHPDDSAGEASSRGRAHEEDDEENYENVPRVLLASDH
# MEASUREMENT NOTES: phage clone on 3T3-FcRL3 cells

BINDER: ET200-011 (scFv, screened as phage clone; entry is VL-linker-VH-His tag-HA tag) scFv: QSVVTQPPSVSAAPGQRVTISCSGSSSNISIYDVSWYQQLPGTAPKLLIYGNNKRPSGIADRFSGSTSGTSATLGITGLQTGDEADYYCGTWDDSLSGGVFGGGTKLTVLGSRGGGGSGGGGSGGGGSLEMAQMQLVQSGAEVKKPGSSVKVSCEASGGTLSSYAINWVRQAPGQGLEWMGGIIPMFGTAHYAQKFQGRVTITADESTKTAYMELSSLRSEDTAVYYCARGVHYASFDHWGQGTLVTVSSTSGQAGQHHHHHHGAYPYDVPDYAS
binding result: no binding
--
BINDER: ET200-098 (scFv, screened as phage clone; entry is VL-linker-VH-His tag-HA tag) scFv: QPVLTQPPSVSKGLRQTATLTCTGNSNNVGNLGVAWLQQHQGHPPKLLSYRNNNRPSGISERLSASRSGNTASLTITGLQPEDEADYYCSAWDSSLSAWVFGGGTKLTVLGSRGGGGSGGGGSGGGGSLEMAEVQLVESGGVVVQPGGSLRLSCAASGFTFDDYAMHWVRQAPGKGLEWVSLINWDGGSTYYADSVKGRFTISRDNSKNSLYLQMNSLRAEDTALYYCAKGMGLRAFDYWGQGTLVTVSSTSGQAGQHHHHHHGAYPYDVPDYAS
binding result: no binding

Provenance of the data: patent US20210388081A1
